Here, each record is paired with measured Activity data.
tested on: Plasmodium yoelii; assay: Antimalarial activity as reduced parasitaemia (%) against multidrug-resistant Plasmodium yoelii infected Swiss mice (Mus musculus) at 96 mg/kg peroral dose after 4 days; type: functional; parameters: scale not given: the % may be the effect or the level left; conditions: route oral

MOLECULE	Activity
C=C(c1ccccc1)C1COC2(CC[C@@]3(C)C(CC[C@H]4[C@@H]5CC[C@H](C(C)=O)[C@@]5(C)CC[C@@H]43)C2)OO1 (stereo partly specified)	100%
C=C(c1ccc(Cl)cc1)C1COC2(CC[C@@]3(C)C(CC[C@@H]4[C@@H]3CC[C@@]3(C)[C@H]4OCC34CC[C@@H](C)CO4)C2)OO1 (stereo partly specified)	71.7%
C=C(c1ccc(OC)cc1)C1COC2(CC[C@@]3(C)C(CC[C@@H]4[C@@H]3CC[C@@]3(C)[C@H]4OCC34CC[C@@H](C)CO4)C2)OO1 (stereo partly specified)	36.1%
C=C(c1ccc(C)cc1)C1COC2(CC[C@@]3(C)C(CC[C@H]4[C@@H]5CC[C@H](C(C)=O)[C@@]5(C)CC[C@@H]43)C2)OO1 (stereo partly specified)	100%
C=C(c1ccc(Cl)cc1)C1COC2(CC[C@@]3(C)C(CC[C@H]4[C@@H]5CC[C@H]([C@H](C)CCCC(C)C)[C@@]5(C)CC[C@@H]43)C2)OO1 (stereo partly specified)	43.4%
C=C(c1ccc(Cl)cc1)C1COC2(CC[C@@]3(C)C(CC[C@H]4[C@@H]5CC[C@H](C(C)=O)[C@@]5(C)CC[C@@H]43)C2)OO1 (stereo partly specified)	100%

The measurements presented in this section are drawn from ChEMBL document CHEMBL1149549.
